Target: T1, ASPP2 Ank-SH3 (ASPP2 893–1128) (UniProt Q13625 893-1128)
T1 construct: ASPP2, four ankyrin repeats and SH3 domain, residues 893-1128
T1 sequence (looked up): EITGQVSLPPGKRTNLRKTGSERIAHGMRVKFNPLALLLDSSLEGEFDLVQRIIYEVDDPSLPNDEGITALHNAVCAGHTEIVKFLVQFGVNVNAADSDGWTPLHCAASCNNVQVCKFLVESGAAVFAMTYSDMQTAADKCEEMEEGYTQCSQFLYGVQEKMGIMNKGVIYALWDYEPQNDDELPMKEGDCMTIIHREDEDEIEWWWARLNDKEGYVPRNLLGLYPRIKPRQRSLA
Test: fluorescence polarisation; fluorescence anisotropy; ASPP2 Ank-SH3 titrated into Fl-NFκB 303–332; 10°C; 20 mM Hepes pH 7.0, 5 mM βME; ionic strength 150 mM (told for the competition done on this complex)
Conditions: both partners purified
Where no end group is shown, it is not given here.
Measure: pKd
pKd field: float, defined as -log10 of concentration (mol/L).

Reported pKd of fluorescein-KRTYETFKSIMKKSPFSGPTDPRPPPRRIA (also called NFκB peptide; source: synthetic peptide) [Fl-NFκB 303–332 (fluorescein-labelled NFκB p65 peptide)] : 6.33
